# System under test: Acetylcholinesterase (Electrophorus electricus)
# Experiment: Compound was evaluated for inhibitory constant for the electric eel Acetylcholinesterase (AChE)
pKi reference
Give only the number. pKi is defined as minus log10 of concentration in molar units.

Line notation	pKi
Fc1cccc(F)c1-c1c2nc(c(-c3c(F)cccc3F)c3ccc([nH]3)c(-c3c(F)cccc3F)c3ccc([nH]3)c(-c3c(F)cccc3F)c3nc1C=C3)C=C2	7.92

Okay, next one:
Item: Fc1ccc(-c2c3nc(c(-c4ccc(F)cc4F)c4ccc([nH]4)c(-c4ccc(F)cc4F)c4ccc([nH]4)c(-c4ccc(F)cc4F)c4nc2C=C4)C=C3)c(F)c1 | pKi: 8.30

---

# System under test: Acetylcholinesterase (Electrophorus electricus, UniProt O42275)
# Sequence (O42275 whole entry): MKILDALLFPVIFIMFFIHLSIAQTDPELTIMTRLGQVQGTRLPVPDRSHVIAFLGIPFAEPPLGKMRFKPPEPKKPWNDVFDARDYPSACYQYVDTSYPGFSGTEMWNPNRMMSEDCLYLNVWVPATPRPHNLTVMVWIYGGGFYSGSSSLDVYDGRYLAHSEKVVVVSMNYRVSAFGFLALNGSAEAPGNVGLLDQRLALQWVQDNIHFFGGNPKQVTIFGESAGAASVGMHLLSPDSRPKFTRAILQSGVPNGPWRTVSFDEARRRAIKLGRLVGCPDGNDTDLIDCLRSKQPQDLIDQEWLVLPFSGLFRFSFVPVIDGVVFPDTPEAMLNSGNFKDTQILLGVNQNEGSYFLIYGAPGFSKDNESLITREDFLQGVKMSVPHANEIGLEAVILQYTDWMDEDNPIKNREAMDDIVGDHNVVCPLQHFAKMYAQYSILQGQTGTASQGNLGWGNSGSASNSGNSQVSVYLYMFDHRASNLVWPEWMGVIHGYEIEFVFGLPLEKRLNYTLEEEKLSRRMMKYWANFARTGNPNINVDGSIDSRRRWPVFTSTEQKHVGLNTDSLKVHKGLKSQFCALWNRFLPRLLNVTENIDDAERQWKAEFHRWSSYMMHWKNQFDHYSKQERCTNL
# Experiment: Compound was evaluated for inhibitory constant for the electric eel Acetylcholinesterase (AChE)
# Experimental conditions: tested as the Zn salt or complex
Endpoint: Ki (µM)
Respond numerically; units are µM and should not be typed.

Item: C1=Cc2nc1c(-c1ccccc1)c1ccc([nH]1)c(-c1ccccc1)c1nc(c(-c3ccccc3)c3ccc([nH]3)c2-c2ccccc2)C=C1 | Ki: 5.39
